Origin of values: patent US10865208B2

molecular target: recombinant human His-ATG7 enzyme (Homo sapiens (Human), UniProt O95352); assay: ATG7 Enzyme Assay (HTRF/FRET, ATG3-GST and Flag-Gabarap); assay type: biochemical; conditions: Concentration 0.111 μM; read-out: Percent Inhibition
Sequence (O95352 whole entry): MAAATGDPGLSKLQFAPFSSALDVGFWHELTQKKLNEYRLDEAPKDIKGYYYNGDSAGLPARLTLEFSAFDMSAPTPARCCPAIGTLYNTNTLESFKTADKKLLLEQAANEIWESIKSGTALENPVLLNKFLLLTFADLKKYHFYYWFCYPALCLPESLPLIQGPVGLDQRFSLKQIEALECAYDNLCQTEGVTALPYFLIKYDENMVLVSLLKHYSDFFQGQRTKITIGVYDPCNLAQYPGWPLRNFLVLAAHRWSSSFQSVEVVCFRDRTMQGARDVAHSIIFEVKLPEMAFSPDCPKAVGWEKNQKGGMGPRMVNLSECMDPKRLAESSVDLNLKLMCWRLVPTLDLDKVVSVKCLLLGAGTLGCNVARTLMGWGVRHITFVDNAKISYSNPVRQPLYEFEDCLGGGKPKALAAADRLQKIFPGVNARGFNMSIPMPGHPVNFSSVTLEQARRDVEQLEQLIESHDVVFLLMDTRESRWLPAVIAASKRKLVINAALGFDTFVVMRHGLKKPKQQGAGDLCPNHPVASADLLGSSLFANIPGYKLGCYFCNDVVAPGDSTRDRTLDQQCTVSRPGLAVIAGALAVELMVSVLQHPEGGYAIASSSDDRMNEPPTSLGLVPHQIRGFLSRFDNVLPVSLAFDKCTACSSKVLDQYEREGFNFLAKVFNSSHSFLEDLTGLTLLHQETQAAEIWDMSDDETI
Respond with 1 for inhibition at 0.111 µM values of 60% and above, -1 for values below.

Field: example entries. Status: answers known.
1. Nc1ncnc2c1c(SCc1ccnnc1)nn2[C@@H]1O[C@H](COS(N)(=O)=O)[C@@H](O)[C@@H]1F: -1
2. Nc1ncnc2c1c(Sc1ccc3c(c1)CCC3)nn2[C@H]1C[C@H](O)[C@@H](COS(N)(=O)=O)O1: 1
3. Nc1ncnc2c1c(Sc1cccnc1)nn2[C@@H]1O[C@H](COS(N)(=O)=O)[C@@H](O)[C@@H]1F: 1
4. Nc1ncnc2c1c(SCCO)nn2[C@H]1C[C@H](O)[C@@H](COS(N)(=O)=O)O1: -1
5. Nc1ncnc2c1c(OC(F)F)nn2[C@@H]1O[C@H](COS(N)(=O)=O)[C@@H](O)[C@@H]1F: 1

Q) hey, is inhibition at 0.111 µM for this one >= 60%? Nc1ncnc2c1c(Sc1ccc(F)cc1)nn2[C@@H]1O[C@H](COS(N)(=O)=O)[C@@H](O)[C@@H]1F
A) 1

Q) Now try Cn1cc(CSc2nn([C@@H]3O[C@H](COS(N)(=O)=O)[C@@H](O)[C@@H]3F)c3ncnc(N)c23)cn1 .
A) 1

====

biological target: recombinant human His-ATG7 enzyme (Homo sapiens (Human), UniProt O95352); experiment: ATG7 Enzyme Assay (HTRF/FRET, ATG3-GST and Flag-Gabarap)
pIC50: −log10 of the molar value.
MEASURED METRIC: pIC50

# example entries with known answers
1. Nc1ncnc2c1c(I)nn2[C@H]1C[C@H](O)[C@@H](COS(N)(=O)=O)O1: 7.00 to 7.30
2. Nc1ncnc2c1c(SCC(F)F)nn2[C@H]1C[C@H](O)[C@H](COS(N)(=O)=O)O1: 6.30 to 7.00
3. CC(C)[C@@H](C)Sc1nn([C@@H]2O[C@H](COS(N)(=O)=O)[C@@H](O)[C@@H]2F)c2ncnc(N)c12: 6.30 to 7.00
4. CC(C)c1nn([C@@H]2O[C@H](COS(N)(=O)=O)[C@@H](O)[C@H]2O)c2ncnc(N)c12: 6.30 to 7.00

Q) Given the entry Nc1ncnc2c1cnn2[C@H]1C[C@H](O)C(COS(N)(=O)=O)O1 (stereo in doubt) , report its measured pIC50.
A) < 6.30

Q) Now try N#CCSc1nn([C@H]2C[C@H](O)[C@@H](COS(N)(=O)=O)O2)c2ncnc(N)c12 .
A) 6.30 to 7.00

Q) Now try Nc1ncnc2c1c(Sc1ccc3c(c1)OCCO3)nn2[C@H]1C[C@H](O)[C@@H](COS(N)(=O)=O)O1 .
A) 7.30 to 7.70

Q) Now try Nc1ncnc2c1c(Sc1cccc3ccccc13)nn2[C@@H]1O[C@H](COS(N)(=O)=O)[C@@H](O)[C@H]1O .
A) 7.00 to 7.30

Q) Now try Nc1ncnc2c1c(SCC1(O)CCCCC1)nn2[C@@H]1O[C@H](COS(N)(=O)=O)[C@@H](O)[C@H]1O .
A) 7.00 to 7.30

====

molecular target: recombinant human His-ATG7 enzyme (Homo sapiens (Human)); assay: ATG7 Enzyme Assay (HTRF/FRET, ATG3-GST and Flag-Gabarap); assay type: biochemical; details: Concentration 0.111 μM; read-out: Percent Inhibition
MEASURED METRIC: inhibition at 0.111 µM (%)
// note: answer is a bare numeric in %

1) CC(C)[C@@H](C)Sc1nn([C@@H]2O[C@H](COS(N)(=O)=O)[C@@H](O)[C@@H]2F)c2ncnc(N)c12: 48
2) Nc1ncnc2c1c(Sc1ccccc1F)nn2[C@H]1C[C@H](O)[C@H](COS(N)(=O)=O)O1: 45
3) Nc1ncnc2c1c(SCC1CCC1)nn2[C@@H]1O[C@H](COS(N)(=O)=O)[C@@H](O)[C@@H]1F: 83
4) Nc1ncnc2c1c(Sc1ccccc1F)nn2[C@@H]1O[C@H](COS(N)(=O)=O)[C@@H](O)[C@@H]1F: 82
5) Nc1ncnc2c1c(SC(F)(F)F)nn2[C@@H]1O[C@H](COS(N)(=O)=O)[C@@H](O)[C@@H]1F: 57

Q) Given the entry Nc1ncnc2c1c(SCC1CC1)nn2[C@H]1C[C@H](O)[C@@H](COS(N)(=O)=O)O1 , report its measured inhibition at 0.111 µM.
A) 62

Q) Now try Cc1ccc(F)c(Sc2nn([C@H]3C[C@H](O)[C@@H](COS(N)(=O)=O)O3)c3ncnc(N)c23)c1 .
A) 63

====

target: recombinant human His-ATG7 enzyme (Homo sapiens (Human)); assay: ATG7 Enzyme Assay (HTRF/FRET, ATG3-GST and Flag-Gabarap)
MEASURED METRIC: IC50

# example entries with known answers
1. Cc1ccc(Sc2nn([C@H]3C[C@H](O)[C@@H](COS(N)(=O)=O)O3)c3ncnc(N)c23)cc1C: 50 to 100 nM
2. Cc1ccc(Sc2nn([C@H]3C[C@H](O)[C@@H](COS(N)(=O)=O)O3)c3ncnc(N)c23)cc1: 100 to 500 nM
3. Cc1nn([C@@H]2O[C@H](COS(N)(=O)=O)[C@@H](O)[C@H]2O)c2ncnc(N)c12: 100 to 500 nM
4. Cn1cc(CSc2nn([C@@H]3O[C@H](COS(N)(=O)=O)[C@@H](O)[C@@H]3F)c3ncnc(N)c23)cn1: 20 to 50 nM
5. Nc1ncnc2c1c(SC(F)F)nn2[C@@H]1O[C@H](COS(N)(=O)=O)[C@@H](O)[C@@H]1F: 20 to 50 nM

Q) IC50 of Nc1ncnc2c1c(Sc1ccc(F)cc1)nn2[C@H]1C[C@H](O)[C@H](COS(N)(=O)=O)O1 on recombinant human His-ATG7 enzyme (Homo sapiens (Human))?
A) 100 to 500 nM

Q) Now try Nc1ncnc2c1c(C(F)(F)F)nn2[C@H]1C[C@H](O)[C@@H](COS(N)(=O)=O)O1 .
A) 100 to 500 nM

Q) Now try Nc1ncnc2c1c(SCc1ccc(OC(F)(F)F)cc1)nn2[C@@H]1O[C@H](COS(N)(=O)=O)[C@@H](O)[C@H]1O .
A) 20 to 50 nM

Q) Now try CN1C(=O)Cc2cc(Sc3nn([C@H]4C[C@H](O)[C@@H](COS(N)(=O)=O)O4)c4ncnc(N)c34)ccc21 .
A) 50 to 100 nM

Q) Now try N#CCSc1nn([C@@H]2O[C@H](COS(N)(=O)=O)[C@@H](O)[C@H]2O)c2ncnc(N)c12 .
A) 20 to 50 nM

====

biological target: recombinant human His-ATG7 enzyme (Homo sapiens (Human), UniProt O95352); test: ATG7 Enzyme Assay (HTRF/FRET, ATG3-GST and Flag-Gabarap); format: biochemical; settings: Concentration 0.111 μM; read-out: Percent Inhibition
Respond with Satisfied for inhibition at 0.111 µM values of 60% and above, Not satisfied for values below.

1. CC(C#N)Sc1nn([C@@H]2O[C@H](COS(N)(=O)=O)[C@@H](O)[C@@H]2F)c2ncnc(N)c12 (mixture of isomers): Satisfied
2. Cc1occc1Sc1nn([C@@H]2O[C@H](COS(N)(=O)=O)[C@@H](O)[C@@H]2F)c2ncnc(N)c12: Not satisfied
3. Nc1ncnc2c1c(SCC1CC1)nn2[C@@H]1O[C@H](COS(N)(=O)=O)[C@@H](O)[C@@H]1F: Satisfied
4. Nc1ncnc2c1c(SC1CCCC1)nn2[C@@H]1O[C@H](COS(N)(=O)=O)[C@@H](O)[C@@H]1F: Satisfied
5. Nc1ncnc2c1c(Sc1ccc(C(F)(F)F)cn1)nn2[C@@H]1O[C@H](COS(N)(=O)=O)[C@@H](O)[C@@H]1F: Satisfied

Q) hey, is inhibition at 0.111 µM for this one >= 60%? CSc1nn([C@@H]2O[C@@H](COS(N)(=O)=O)[C@@H](O)[C@H]2O)c2ncnc(N)c12
A) Not satisfied

Q) Now try N#Cc1ccnc(Sc2nn([C@@H]3O[C@H](COS(N)(=O)=O)[C@@H](O)[C@@H]3F)c3ncnc(N)c23)c1 .
A) Satisfied

====

target: recombinant human His-ATG7 enzyme (Homo sapiens (Human)); assay: ATG7 Enzyme Assay (HTRF/FRET, ATG3-GST and Flag-Gabarap); assay type: biochemical; conditions: Concentration 0.111 μM; read-out: Percent Inhibition
Respond with Satisfied for inhibition at 0.111 µM values of 60% and above, Not satisfied for values below.

Field: example entries. Status: answers known.
1) CC1CC1CSc1nn([C@@H]2O[C@H](COS(N)(=O)=O)[C@@H](O)[C@@H]2F)c2ncnc(N)c12 (stereo partly shown) [Compound I-140]: Satisfied
2) Cc1cccc(Sc2nn([C@H]3C[C@H](O)[C@@H](COS(N)(=O)=O)O3)c3ncnc(N)c23)c1 [Compound I-205]: Not satisfied
3) Nc1ncnc2c1c(Sc1cccc(F)c1)nn2[C@@H]1O[C@H](COS(N)(=O)=O)[C@@H](O)[C@@H]1F [Compound I-116]: Satisfied
4) CC(C)Sc1nn([C@H]2C[C@H](O)[C@H](COS(N)(=O)=O)O2)c2ncnc(N)c12 [Compound I-220]: Satisfied
5) Nc1ncnc2c1c(Sc1ccc3c(c1)CCO3)nn2[C@H]1C[C@H](O)[C@@H](COS(N)(=O)=O)O1 [Compound I-186]: Satisfied

Q) hey, is inhibition at 0.111 µM for this one >= 60%? Cc1ccc(Sc2nn([C@H]3C[C@H](O)[C@@H](COS(N)(=O)=O)O3)c3ncnc(N)c23)cc1 [Compound I-193]
A) Not satisfied

Q) Now try N#Cc1cccc(Sc2nn([C@@H]3O[C@H](COS(N)(=O)=O)[C@@H](O)[C@@H]3F)c3ncnc(N)c23)c1 [Compound I-153] .
A) Not satisfied
